# test.system: T1, recombinant human IL4Rα-his protein (in house made) (human, UniProt P24394 26-232, limits assumed)
# T1 construct: also called Human IL4Ra-his
# assay.details: competitive ELISA: antibody mixed with biotin human IL4Rα-his, competitor plate-coated Benchmark
quantity: IC50 (nM)
Respond numerically; units are nM and should not be typed.

In: Please give the measured IC50 for this binder: mouse antibody B8G11F2B7G5E8 (antibody, V domains shown, Mouse hybridoma mAb; also called Mouse B8G11F2B7G5E8; mAb B8G11F2B7G5E8) VH: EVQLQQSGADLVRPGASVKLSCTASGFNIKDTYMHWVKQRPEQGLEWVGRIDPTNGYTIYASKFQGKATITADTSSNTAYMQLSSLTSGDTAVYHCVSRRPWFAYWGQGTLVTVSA VL: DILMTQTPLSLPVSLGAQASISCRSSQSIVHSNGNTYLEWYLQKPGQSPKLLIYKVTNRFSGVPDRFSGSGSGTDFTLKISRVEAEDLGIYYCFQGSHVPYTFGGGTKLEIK
Out: 0.0171

In: Please give the measured IC50 for this binder: mouse antibody B1D2F7D3B5 (antibody, V domains shown, Mouse hybridoma mAb) VH: EVKLVESGGGLVKPGGSLKLSCAASGFTFSSYAMSWVRQTPEKRLEWVASISSGDSTYYLDSVKGRFTISRDNAMNILYLQMSSLRSEDTAVYYCERSGGSAPYWGQGTLVSVSA VL: QIVLTQSPAIMSASPGEMVTISCSASSSVSYMYWYQQKPGSSPKPWIYRTSNLASGVPARFSGSGSGTSYSLTISSMEAEDAATYYCQQYHSFPLTFGAGTKLELK
Out: 0.024

In: Please give the measured IC50 for this binder: mouse antibody B9D1D11F8D8 (antibody, V domains shown, Mouse hybridoma mAb) VH: EVKLVESGGGLVKPGGSLKLSCAASGFTFSSYAMSWVRQTPEKRLEWVASISSGDSTYYLDSVKGRFTISRDNARNILYLQVSSLRSEDTAMYYCERSGGSAPYWGQGTLVTVSA VL: QIVLTQSPAIMSASPGDMVTISCSASSSVNYMYWYQQKPGSSPKPWIYRTSNLASGVPARFSGSGSGTSYSLTISSMEAEDAATYYCQQYHSFPLTFGAGTKLELK
Out: 0.0209

In: Please give the measured IC50 for this binder: mouse antibody C2B2F7B7 (antibody, V domains shown, Mouse hybridoma mAb) VH: EVQLVESGGGLVQPGGSLKLSCAASGFTFSTYGMSWVRQTPDKRLELVATINSNGGSTNYPDSVKGRFTISRDNAKNTLYLQMSSLKSEDTAMYYCARFFRIRNAMDYWGQGTSVTVSS VL: DIQMTQSPASLSASVGETVTITCRASENIYSYLAWYQQKQGKSPQFLVYNAKTLAEGVPSRFSGSGSGTQFSLKINSLQPEDFGSYYCQHYYGTPTWTFGGGTKLEIK
Out: 0.716
